target: Sodium-dependent dopamine transporter (Homo sapiens); further: assay procedure not described here
Sequence (Q01959 whole entry): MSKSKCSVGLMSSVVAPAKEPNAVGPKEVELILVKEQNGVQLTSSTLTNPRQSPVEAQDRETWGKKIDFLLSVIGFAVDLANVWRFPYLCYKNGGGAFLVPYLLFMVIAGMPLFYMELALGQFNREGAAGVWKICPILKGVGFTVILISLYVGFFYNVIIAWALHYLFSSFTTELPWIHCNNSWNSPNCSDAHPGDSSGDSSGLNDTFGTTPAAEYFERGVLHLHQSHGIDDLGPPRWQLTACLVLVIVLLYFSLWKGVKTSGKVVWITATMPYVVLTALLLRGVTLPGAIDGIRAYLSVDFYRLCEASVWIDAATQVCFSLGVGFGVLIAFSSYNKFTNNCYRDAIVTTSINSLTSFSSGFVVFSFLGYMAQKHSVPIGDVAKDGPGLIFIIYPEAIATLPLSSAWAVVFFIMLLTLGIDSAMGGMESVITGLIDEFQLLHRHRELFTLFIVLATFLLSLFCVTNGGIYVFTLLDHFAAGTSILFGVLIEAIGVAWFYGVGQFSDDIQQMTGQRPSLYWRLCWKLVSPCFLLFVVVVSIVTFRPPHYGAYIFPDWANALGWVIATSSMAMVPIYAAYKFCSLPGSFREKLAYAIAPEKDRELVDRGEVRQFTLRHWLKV
Listing of entries alongside the reported AC50.
readoutLabel: AC50

Nc1ccc(C(=O)Oc2ccccc2)c(O)c1 [PHENYL AMINOSALICYLATE]	0.235 µM
C[C@]1(Cn2ccnn2)[C@H](C(=O)O)N2C(=O)C[C@H]2S1(=O)=O [TAZOBACTAM]	> 30 µM
COc1cc2nc(N3CCN(C(=O)C4CCCO4)CC3)nc(N)c2cc1OC (configuration not stated) [TERAZOSIN]	> 30 µM
OC[C@H]1O[C@@](CO)(O[C@H]2O[C@H](CO)[C@@H](O)[C@H](O)[C@H]2O)[C@@H](O)[C@@H]1O [SUCROSE]	> 30 µM
[H]/N=C(\N/C(=N/[H])Nc1ccc(Cl)cc1)NC(C)C [PROGUANIL]	12.5 µM
CN1C(=O)/C(=N\NC(N)=S)c2ccccc21 [METHISAZONE]	> 30 µM
CC(=O)O[C@]1(C(C)=O)CC[C@H]2[C@@H]3C=C(Cl)C4=CC(=O)CC[C@]4(C)[C@H]3CC[C@@]21C [CHLORMADINONE ACETATE]	> 30 µM
C=CCSCC1Nc2cc(Cl)c(S(N)(=O)=O)cc2S(=O)(=O)N1 (configuration not stated) [ALTHIAZIDE]	> 30 µM
O=C(O)CO [GLYCOLIC ACID]	> 30 µM
C[C@@H]1C[C@H]2[C@@H]3CCC4=CC(=O)C=C[C@]4(C)[C@@]3(Cl)[C@@H](O)C[C@]2(C)[C@@]1(OC(=O)c1ccco1)C(=O)CCl [MOMETASONE FUROATE]	> 30 µM
C#C[C@]1(O)CC[C@H]2[C@@H]3CCC4=CC(=O)CC[C@@H]4[C@H]3C(=C)C[C@@]21CC [ETONOGESTREL]	> 30 µM
C/C=C/C/C=C/CCC(=O)[C@H]1O[C@H]1C(N)=O [CERULENIN]	> 30 µM
C=C1CC[C@H](O)C/C1=C/C=C1\CCC[C@]2(C)[C@@H]([C@H](C)/C=C/[C@H](C)C(C)C)CC[C@@H]12 [ERGOCALCIFEROL]	> 30 µM
CC(C)N(CCNC(=O)CN1CCCC1=O)C(C)C	> 30 µM
CC(C)C[C@H](NC(=O)CNC(=O)c1cc(Cl)ccc1Cl)B(O)O [IXAZOMIB]	> 30 µM
NCC(CC(=O)O)c1ccccc1 (configuration not stated) [PHENIBUT]	> 30 µM
CC(C)(O)CNc1nc(Nc2ccnc(C(F)(F)F)c2)nc(-c2cccc(C(F)(F)F)n2)n1 [ENASIDENIB]	> 30 µM

Provenance of the data: ChEMBL document CHEMBL5291721
